measuredOn: UniProt:Q07912
Sequence (Q07912 whole entry): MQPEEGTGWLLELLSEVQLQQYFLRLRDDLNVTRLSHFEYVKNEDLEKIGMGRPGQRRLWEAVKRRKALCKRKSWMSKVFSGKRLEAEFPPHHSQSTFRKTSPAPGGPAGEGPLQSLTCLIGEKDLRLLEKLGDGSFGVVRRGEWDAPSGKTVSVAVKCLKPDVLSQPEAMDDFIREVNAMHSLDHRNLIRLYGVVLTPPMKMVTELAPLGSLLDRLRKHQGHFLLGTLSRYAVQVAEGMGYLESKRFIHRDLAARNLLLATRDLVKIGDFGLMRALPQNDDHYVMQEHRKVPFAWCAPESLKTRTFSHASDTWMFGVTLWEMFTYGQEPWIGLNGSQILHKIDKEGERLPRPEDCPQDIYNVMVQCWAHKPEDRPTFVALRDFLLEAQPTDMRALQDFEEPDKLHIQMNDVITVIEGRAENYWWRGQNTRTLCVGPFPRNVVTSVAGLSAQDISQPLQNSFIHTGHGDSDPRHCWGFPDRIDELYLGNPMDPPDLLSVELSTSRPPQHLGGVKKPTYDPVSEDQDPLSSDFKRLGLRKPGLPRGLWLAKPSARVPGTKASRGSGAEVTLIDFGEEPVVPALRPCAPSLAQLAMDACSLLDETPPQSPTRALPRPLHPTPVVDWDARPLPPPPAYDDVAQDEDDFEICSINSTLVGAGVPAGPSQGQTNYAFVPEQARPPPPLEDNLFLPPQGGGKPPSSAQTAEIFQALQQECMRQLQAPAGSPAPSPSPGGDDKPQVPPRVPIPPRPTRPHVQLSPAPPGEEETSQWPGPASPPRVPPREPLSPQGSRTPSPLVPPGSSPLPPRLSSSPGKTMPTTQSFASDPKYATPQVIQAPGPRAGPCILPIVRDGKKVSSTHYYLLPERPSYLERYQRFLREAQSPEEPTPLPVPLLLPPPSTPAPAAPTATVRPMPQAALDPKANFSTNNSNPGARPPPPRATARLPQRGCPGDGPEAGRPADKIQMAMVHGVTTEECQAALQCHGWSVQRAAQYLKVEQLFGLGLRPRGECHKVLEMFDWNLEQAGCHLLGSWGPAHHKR
experimentalProtocol: ACK1 ELISA: phosphorylation of AKT-derived peptide
Type: biochemical
conditionContext: 10 μM; Table 1, replicate values listed; read-out: % Inhibition at 10 μM (ELISA)
Each entry gets No if its inhibition at 10 µM stays under 80%, and Yes if its inhibition at 10 µM is 80% or above.

Study these solved cases before continuing.
• CC(C)(C)OC(=O)N1CCN(c2ccc(Nc3ncc(Br)c(NCC4CCCO4)n3)cc2)CC1.Cl (centres unmarked) [YL9-157, hydrochloride] = No
• Brc1cnc(Nc2ccc(C3CCNCC3)cc2)nc1NCC1CCCO1.Cl (centres unmarked) = Yes
• CN1CCN(c2ccc(Nc3ncc(F)c(NCC4CCCO4)n3)cc2)CC1 (centres unmarked) = No
• O=C(O)CCC(=O)N1CCN(c2ccc(Nc3ncc(Br)c(NCC4CCCO4)n3)cc2)CC1 (centres unmarked) = Yes
• CN1CCN(c2ccc(Nc3ncc(Cl)c(NCC4CCCO4)n3)cc2)CC1 (centres unmarked) = Yes

query: Does the compound Cl.Clc1cnc(Nc2ccc(C3CCNCC3)cc2)nc1NC[C@@H]1CCCO1 have recorded inhibition at 10 µM that is 80% or more?
result: No

query: Textbook exercise: given the entry CC(C)S(=O)(=O)c1ccccc1Nc1nc(Nc2ccc(S(N)(=O)=O)cc2)ncc1C(=O)Nc1c(F)cccc1Cl , state whether its inhibition at 10 µM is greater than or equal to 80%.
result: No

query: Kindly determine if inhibition at 10 µM recorded for Clc1cnc(Nc2ccc(N3CCNCC3)cc2)nc1NCC1CCCO1 (centres unmarked) is above or exactly 80%.
result: Yes
